# Test system: Panc-1 cells
# ASSAY_TEXT: ATPLite luminescence viability assay on Panc-1 cells
# Type: cell-based, human
# EXPERIMENTAL_CONTEXT: Homo sapiens; Panc-1, 72 hours post application, 2, 5, 10, 20 μM, Quest Graph IC50 Calculator
pIC50: −log10 of the molar value.

RECORD_SMILES	pIC50
COc1ccc2cc(-c3nc4ccc(C)cn4c3NCc3ccco3)c(=O)[nH]c2c1	5.88

----------
# System: irradiated mouse T-lymphocytes
# ASSAY_TEXT: In vitro viability assay on irradiated T-lymphocytes
# Type: cell-based
# EXPERIMENTAL_CONTEXT: T-lymphocyte; preservation of mouse T-lymphocytes, 2Gy radiation
MEASURED_QUANTITY: EC50 (µM)

MOLECULE	OBSERVED
COc1ccc2cc(-c3nc4ccc(C)cn4c3NCc3ccco3)c(=O)[nH]c2c1 [BCN057]	5.34

----------
# Test system: irradiated mouse T-lymphocytes
# ASSAY_TEXT: In vitro viability assay on irradiated T-lymphocytes
# Assay type: cell-based
# EXPERIMENTAL_CONTEXT: T-lymphocyte, light or radiation study; viability of irradiated mouse T-lymphocytes
pEC50: −log10 of the molar value.
MEASURED_QUANTITY: pEC50

RECORD_SMILES	OBSERVED
COc1ccc2cc(-c3nc4ccc(C)cn4c3NCc3ccco3)c(=O)[nH]c2c1	5.27
